Data origin, for the record: patent US20220340642A1

Recorded pKd by entry
- system under test: T1, DcR3 FL-Fc (R&D Systems, Inc.) (human, UniProt O95407 30-300)
- T1 construct: Bought product made in insect cells; also called DcR3-Fc (R&D Systems, Inc.); DcR3 FL-Fc (IgG1)
- T1 sequence: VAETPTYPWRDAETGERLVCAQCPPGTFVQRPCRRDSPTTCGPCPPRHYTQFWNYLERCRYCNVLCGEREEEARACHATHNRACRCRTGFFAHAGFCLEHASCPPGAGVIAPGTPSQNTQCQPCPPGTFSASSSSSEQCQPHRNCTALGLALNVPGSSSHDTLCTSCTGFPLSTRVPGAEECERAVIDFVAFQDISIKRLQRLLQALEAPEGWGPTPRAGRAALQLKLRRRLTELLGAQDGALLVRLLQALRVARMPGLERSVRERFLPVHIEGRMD
- assay overview: SPR, binder captured
Hey, just a heads up that pKd is the negative log base 10 of the concentration in molar.

Below, each entry is followed by its recorded pKd result.
1) soluble recombinant of human TL1A (His6, GS linker, Leu72-Leu251) (ligand, also called His6-TL1A; hTL1A) HHHHHHGGGSGGGSGGGSLKGQEFAPSHQQVYAPLRADGDKPRAHLTVVRQTPTQHFKNQFPALHWEHELGLAFTKNRMNYTNKFLLIPESGDYFIYSQVTFRGMTSECSEIRQAGRPNKPDSITVVITKVTDSYPEPTQLLMGTKSVCEVGSNWFQPIYLGAMFSLQEGDKLMVNVSDISLVDYTKEDKTFFGAFLL : 9.05
2) soluble recombinant of cynomolgus monkey LIGHT (His10, GS linker, Asp74-Val240) (ligand) HHHHHHHHHHGGGSGGGSGGGSIEGRDGHGGSWEQLIQERRSHQNNPAAHLTGANSSLTGSGGPLLWETQLGLAFLRGLDYHDGALVANKAGYYYIYSKVQLGGVGCPLGLASTITHGLYKRTPRYPEELELLVSQQSPCGRATSNSRVWWDSSFLGGVVHLEVGEEVVVRVLDERLVRLRDGTRSYFGAFMV : 8.92
3) soluble recombinant of human FasL (His6, Pro134-Leu281) (ligand) PSPPPEKKELRKVAHLTGKSNSRSMPLEWEDTYGIVLLSGVKYKKGGLVINETGLYFVYSKVYFRGQSCNNLPLSHKVYMRNSKYPQDLVMMEGKMMSYCTTGQMWARSSYLGAVFNLTSADHLYVNVSELSLVNFEESQTFFGLYKL : 8.89
4) soluble recombinant of mouse FasL (His6, Pro132-Leu279) (ligand) HHHHHHPSTPSEKKEPRSVAHLTGNPHSRSIPLEWEDTYGTALISGVKYKKGGLVINETGLYFVYSKVYFRGQSCNNQPLNHKVYMRNSKYPEDLVLMEEKRLNYCTTGQIWAHSSYLGAVFNLTSADHLYVNISQLSLINFEESKTFFGLYKL : 7.19

Next:
Request: What value of measured pKd is listed for soluble recombinant of cynomolgus monkey TL1A (His6, GS linker, Leu72-Leu251) (ligand, also called His6-cynoTL1A) HHHHHHGGGSGGGSGGGSLKGQEFAPSHQQVYAPLRADGDKPRAHLTVVRQTPTQHLKNQFPALHWEHELGLAFTKNRMNYTNKFLLIPESGDYFVYSQVTFRGMTSECSEIRQAGRPNKPDSITVVITKVTDSYPEPTQLLMGTKSVCEVGSNWFQPIYLGAMFSLQEGDKLMVNVSDISLVDYTKEDKTFFGAFLL ?
Response: 9.04
